- tested.on: MNK1 (Homo sapiens (Human), UniProt Q9BUB5)
- Sequence (Q9BUB5 other isoform, or with tags, fused parts or gaps): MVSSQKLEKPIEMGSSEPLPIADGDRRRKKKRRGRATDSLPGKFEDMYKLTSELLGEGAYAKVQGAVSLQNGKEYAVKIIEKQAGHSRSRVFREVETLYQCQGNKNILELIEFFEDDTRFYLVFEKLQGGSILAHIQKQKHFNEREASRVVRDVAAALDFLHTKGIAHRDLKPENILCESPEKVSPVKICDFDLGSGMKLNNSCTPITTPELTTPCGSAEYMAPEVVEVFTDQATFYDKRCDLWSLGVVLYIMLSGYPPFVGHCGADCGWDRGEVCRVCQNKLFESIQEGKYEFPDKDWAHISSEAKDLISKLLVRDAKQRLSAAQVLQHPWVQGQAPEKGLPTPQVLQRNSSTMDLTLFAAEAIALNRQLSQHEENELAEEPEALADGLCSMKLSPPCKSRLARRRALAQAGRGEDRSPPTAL
- protocol.notes: MNK1 in vitro kinase assay (Assay 3), Z'-LYTE
- Format: biochemical
- setup.conditions: compound concentration of 1 μM, read-out: MNK1 % INH
measured.parameter: inhibition at 1 µM (%)
Write the answer as a number in %, unit excluded.

In: I would be grateful if you could share the reported inhibition at 1 µM for Cc1cc(N=S(C)(C)=O)cc2ncnc(Nc3ccc(F)cc3O[C@H](C)C(=O)N=S(C)(C)=O)c12 [Example 4.022] .
Out: 85

In: Same thing, different compound: Cc1cc(N=S(C)(C)=O)cc2ncnc(Nc3ccc(F)cc3OCC3COCCO3)c12 (stereo not shown) [Example 3.044]
Out: 49

In: Next record, please: Cc1cc(N=S(C)(C)=O)cc2ncnc(Nc3ccc(F)cc3OCC3CCOCC3)c12 [Example 3.045]
Out: 78

In: Do the same for CC(=O)NC[C@@H](C)Oc1cc(F)ccc1Nc1ncnc2cc(N=S(C)(C)=O)cc(C)c12 [Example 5.009] please
Out: 74

In: Field entry: Cc1cc(N=S(C)(C)=O)cc2ncnc(Nc3ccc(F)cc3OC(C)COC3CCOC3)c12 (stereo not shown) [Example 3.028]
Out: 92

In: Follow-up item: Cc1cc(N=S2(=O)CCCC2)cc2ncnc(Nc3ccc(F)cc3O[C@H](C)C(=O)N(C)CCc3ccccc3)c12 [Example 4.063]
Out: 56

In: Moving on to Cc1cc(N=S2(=O)CCCC2)cc2ncnc(Nc3ccc(F)cc3O[C@H](C)C(=O)N(C)C(C)C)c12 [Example 4.003]
Out: 96

----------
Task for the reader: assign each of the following compounds its reported pIC50.
- tested.on: UniProt:Q9HBH9
- protocol.notes: MNK2a in vitro kinase assay (Assay 2), ADP-Glo
- Assay type: biochemical
- setup.conditions: read-out: MNK2 IC50
Just so you know, pIC50 here is -log10 of the concentration in molar units; reply with that number alone.

In: If you can, please state the reported pIC50 value of Cc1cc(N=S(C)(=O)C2CCOCC2)cc2ncnc(Nc3ccc(F)cc3O[C@H](C)C(=O)NCC(F)(F)F)c12 (stereo partly drawn) .
Out: 8.40

In: Input CC(Oc1cc(F)ccc1Nc1ncnc2cc(N=S(C)(C)=O)cc(F)c12)C(F)(F)F (stereo not drawn)
Out: 8.15

In: Would you mind doing Cc1cc(N=S(C)(C)=O)cc2ncnc(Nc3ccc(F)cc3OCC3COCCO3)c12 (stereo not drawn) as well?
Out: 7.20

In: Item: "CC(C)NC(=O)[C@@H](C)Oc1cc(F)ccc1Nc1ncnc2cc(N=S(C)(C)=O)cc(Cl)c12"
Out: 8.40

In: // repeat for "CS(C)(=O)=Nc1cc(C2CC2)c2c(Nc3ccc(F)cc3OC(CF)CF)ncnc2c1" and report
Out: 8.52

In: Repeat for the following compound: "O=S1(=Nc2cc(C(F)(F)F)c3c(Nc4ccc(F)cc4OC(CF)CF)ncnc3c2)CCCC1"
Out: 8.52

In: Let us now turn to CC(CF)Oc1cc(F)ccc1Nc1ncnc2cc(N=S(C)(C)=O)cc(F)c12 (stereo not drawn)
Out: 8.30

In: Same lookup for "Cc1cc(N=S(C)(C)=O)cc2ncnc(Nc3ccc(F)cc3OCC3(C)COC3)c12" , please.
Out: 7.77

In: Now this one: C[C@@H](Oc1cc(F)ccc1Nc1ncnc2cc(N=S(C)(=O)C3CCOCC3)cc(F)c12)C(=O)NCC(F)(F)F (stereo partly drawn)
Out: 8.15

In: Then what about the compound "Cc1cc(N=S2(=O)CCC2)cc2ncnc(Nc3ccc(F)cc3O[C@H](C)C(=O)NCCC(F)F)c12" ?
Out: 8.70

In: And for "Cc1cc(N=S(C)(C)=O)cc2ncnc(Nc3ccc(F)cc3OC(CF)CF)c12" ?
Out: 8.70

In: Could you do the same for "C#CCNC(=O)[C@@H](C)Oc1cc(F)ccc1Nc1ncnc2cc(N=S(C)(C)=O)cc(C)c12" , please?
Out: 8.40

In: Please give the result for "Cc1cc(N=S2(=O)CCC2)cc2ncnc(Nc3ccc(Cl)cc3O[C@H](C)C(=O)NCC(F)F)c12" too.
Out: 9.00

In: What do you get for "Cc1cc(N=S(C)(C)=O)cc2ncnc(Nc3ccc(F)cc3O[C@H](C)C(=O)NCC(C)(C)O)c12" ?
Out: 8.22

In: Now this one: "C[C@@H](Oc1cc(F)ccc1Nc1ncnc2cc(N=S(C)(C)=O)cc(Cl)c12)C(F)(F)F"
Out: 9.00

----------
- tested.on: MNK2a (Homo sapiens (Human), UniProt Q9HBH9)
- Sequence (Q9HBH9 whole entry): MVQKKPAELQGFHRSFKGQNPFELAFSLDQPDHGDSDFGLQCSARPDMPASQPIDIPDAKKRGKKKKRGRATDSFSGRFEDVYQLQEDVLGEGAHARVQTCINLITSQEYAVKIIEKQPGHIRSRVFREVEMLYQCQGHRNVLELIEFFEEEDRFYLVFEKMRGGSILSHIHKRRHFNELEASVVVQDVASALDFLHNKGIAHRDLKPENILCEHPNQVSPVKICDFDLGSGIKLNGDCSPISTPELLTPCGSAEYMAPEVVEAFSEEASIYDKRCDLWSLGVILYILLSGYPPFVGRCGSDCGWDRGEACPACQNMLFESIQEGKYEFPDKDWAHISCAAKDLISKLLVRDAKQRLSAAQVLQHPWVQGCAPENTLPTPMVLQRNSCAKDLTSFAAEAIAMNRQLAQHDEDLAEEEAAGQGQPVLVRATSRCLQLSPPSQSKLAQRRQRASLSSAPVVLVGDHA
measured.parameter: IC50 (nM)
Note: unit nM is implicit; provide only the numeric part.

In: Looking for the measured IC50 of Cc1cc(N=S(C)(C)=O)cc2ncnc(Nc3ccc(F)cc3O[C@H](C)C(=O)N3CCC(O)C3)c12 (some centres unmarked) , can you help?
Out: 28

In: Field entry: "Cc1cc(N=S2(=O)CCC2)cc2ncnc(Nc3ccc(F)cc3O[C@H](C)C(=O)NC34CC(C3)C4)c12"
Out: 2

In: // repeat for "CCOC(=O)[C@@H](C)Oc1cc(F)ccc1Nc1ncnc2cc(N=S(C)(C)=O)cc(C)c12" and report
Out: 2

In: Request: "COCCNC(=O)[C@@H](C)Oc1cc(F)ccc1Nc1ncnc2cc(N=S(C)(C)=O)cc(C)c12"
Out: 66

In: Next up: "CCNC(=O)N1CCS(=O)(=Nc2cc(C)c3c(Nc4ccc(F)cc4O[C@H](C)c4cc(C)no4)ncnc3c2)CC1"
Out: 2

In: Same for "Cc1cc(N=S(C)(C)=O)cc2ncnc(Nc3ccc(F)cc3O[C@H](C)C(=O)N(C)CCO)c12"
Out: 13

In: And what about the compound CC(NC(=O)[C@@H](C)Oc1cc(F)ccc1Nc1ncnc2cc(N=S(C)(C)=O)cc(Cl)c12)C(F)F (some centres unmarked) ?
Out: 3

In: Field entry: Cc1cc(N=S(C)(C)=O)cc2ncnc(Nc3ccc(F)cc3OC(C)c3ccncc3)c12 (centres unmarked)
Out: 2

In: Subsequent entry: Cc1cc(N=S2(=O)CCC(O)C2)cc2ncnc(Nc3ccc(F)cc3O[C@H](C)C(=O)NCC(F)(F)F)c12 (some centres unmarked)
Out: 2

In: Quick one: "O=S1(=Nc2cc(C(F)(F)F)c3c(Nc4ccc(F)cc4OC(CF)CF)ncnc3c2)CCOCC1"
Out: 1

In: Can you check "Cc1cc(N=S2(=O)CCC2)cc2ncnc(Nc3cccnc3O[C@H](C)C(=O)NCC(F)(F)F)c12" next?
Out: 3

In: Moving on to the next compound: "Cc1cc(N=S(C)(C)=O)cc2ncnc(Nc3ccc(F)cc3OCC3(C#N)CCC3)c12"
Out: 8

In: Another: "Cc1cc(N=S(C)(C)=O)cc2ncnc(Nc3ccc(F)cc3O[C@H](C)C(=O)N3CCCCC3)c12"
Out: 13

In: Same read-out for "Cc1cc(N=S2(=O)CCC2)cc2ncnc(Nc3ccc(F)cc3O[C@H](C)C(=O)NC(CF)CF)c12" ?
Out: 1

In: Now this one: "COCCN(C)C(=O)[C@@H](C)Oc1cc(F)ccc1Nc1ncnc2cc(N=S3(=O)CCCC3)cc(C)c12"
Out: 7

In: Repeat with "COCC(=O)N1CCS(=O)(=Nc2cc(C)c3c(Nc4ccc(F)cc4O[C@H](C)c4cc(C)no4)ncnc3c2)CC1"
Out: 4

In: Please do the same for "Cc1cc(N=S(C)(C)=O)cc2ncnc(Nc3ccc(F)cc3O[C@H](C)CN)c12" as well.
Out: 1

In: Now consider Cc1cc(N=S(C)(C)=O)cc2ncnc(Nc3ccc(F)cc3OC(C)c3nccs3)c12 (centres unmarked) .
Out: 37

In: Query CCOC(Oc1ncccc1Nc1ncnc2cc(N=S(C)(C)=O)cc(C)c12)C(F)(F)F (centres unmarked) next
Out: 8

In: And the next one, "Cc1cc(N=S2(=O)CCC2)cc2ncnc(Nc3ccc(F)cc3O[C@H](C)C(=O)NCCCF)c12" ?
Out: 2

In: Next record, please: CC(NC(=O)[C@@H](C)Oc1cc(F)ccc1Nc1ncnc2cc(N=S3(=O)CCC3)cc(Cl)c12)C(F)F (some centres unmarked)
Out: 2

In: Lookup "CCOC(=O)[C@H](C)Oc1cc(F)ccc1Nc1ncnc2cc(N=S(C)(C)=O)cc(C)c12"
Out: 16

In: Then this compound: "Cc1cc(N=S2(=O)CCC2)cc2ncnc(Nc3ccc(F)cc3O[C@H](C)C(=O)NCC#N)c12"
Out: 1

In: Lookup Cc1cc(N=S(C)(C)=O)cc2ncnc(Nc3ccc(F)cc3OC(C)c3ccccn3)c12 (centres unmarked)
Out: 2

In: Now this one: "Cc1cc(N=S2(=O)CCC2)cc2ncnc(Nc3ccc(Cl)nc3O[C@H](C)C(=O)NCC(F)(F)F)c12"
Out: 1

In: Please do the same for "C[C@@H](Oc1cc(F)ccc1Nc1ncnc2cc(N=S3(=O)CCC3)cc(F)c12)C(=O)NCC(F)F" as well.
Out: 3

In: // next record "C[C@H](NC(=O)[C@@H](C)Oc1cc(F)ccc1Nc1ncnc2cc(N=S3(=O)CCC3)cc(F)c12)C(F)(F)F"
Out: 1

In: And for Cc1cc(C(Oc2cc(F)ccc2Nc2ncnc3cc(N=S(C)(C)=O)cc(C)c23)C(F)(F)F)on1 (centres unmarked) ?
Out: 17

In: Another compound to check: Cc1cc(C(C)Oc2cc(C(N)=O)ccc2Nc2ncnc3cc(N=S(C)(C)=O)cc(C)c23)on1 (centres unmarked)
Out: 6
